# testedTarget: PDGFR (Homo sapiens, UniProt P09619)
# Sequence (P09619 33-1106, species assumed): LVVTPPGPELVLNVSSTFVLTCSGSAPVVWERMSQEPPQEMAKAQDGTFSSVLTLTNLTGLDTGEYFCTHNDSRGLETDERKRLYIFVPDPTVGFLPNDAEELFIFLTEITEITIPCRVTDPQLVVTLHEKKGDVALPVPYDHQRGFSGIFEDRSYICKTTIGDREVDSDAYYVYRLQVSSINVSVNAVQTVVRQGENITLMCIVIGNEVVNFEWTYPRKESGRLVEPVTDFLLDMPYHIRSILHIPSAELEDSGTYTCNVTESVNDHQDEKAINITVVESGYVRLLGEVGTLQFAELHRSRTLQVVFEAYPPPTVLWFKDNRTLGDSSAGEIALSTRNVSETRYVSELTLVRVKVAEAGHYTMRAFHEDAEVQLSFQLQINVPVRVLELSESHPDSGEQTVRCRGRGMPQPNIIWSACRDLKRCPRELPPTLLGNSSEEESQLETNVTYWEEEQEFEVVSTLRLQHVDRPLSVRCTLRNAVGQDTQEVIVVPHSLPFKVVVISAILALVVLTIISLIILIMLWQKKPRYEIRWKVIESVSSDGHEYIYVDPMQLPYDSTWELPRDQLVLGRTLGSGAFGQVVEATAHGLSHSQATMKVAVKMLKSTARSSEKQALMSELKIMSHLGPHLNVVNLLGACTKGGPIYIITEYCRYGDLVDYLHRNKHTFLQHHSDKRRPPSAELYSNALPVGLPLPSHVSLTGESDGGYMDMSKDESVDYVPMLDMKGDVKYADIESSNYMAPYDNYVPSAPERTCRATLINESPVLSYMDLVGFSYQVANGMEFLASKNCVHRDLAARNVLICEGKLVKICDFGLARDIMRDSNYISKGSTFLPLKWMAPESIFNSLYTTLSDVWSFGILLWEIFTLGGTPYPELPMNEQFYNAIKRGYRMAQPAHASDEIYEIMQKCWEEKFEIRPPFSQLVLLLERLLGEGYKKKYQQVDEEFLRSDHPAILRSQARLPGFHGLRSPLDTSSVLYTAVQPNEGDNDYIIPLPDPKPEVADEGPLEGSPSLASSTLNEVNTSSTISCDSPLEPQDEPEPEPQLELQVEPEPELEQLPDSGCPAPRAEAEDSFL
Structures can show the parent of a compound that is named as a salt.
IC50: recorded values
propertyName: IC50

>>> df
                                   compound  measuredvalue
0  C#Cc1cccc(Nc2ncnc3c2C(=Cc2[nH]c(C)c(CCCN4CCOCC4)c2C)C(=O)N3)c1 [Formula 18]        15.3 µM
1  Cc1cc(C=C2C(=O)Nc3ncnc(Nc4ccc(F)c(Cl)c4)c32)[nH]c1C(=O)N1CCOCC1 [Formula 37]        > 20 µM
2  C#Cc1cccc(Nc2ncnc3c2C(=Cc2[nH]c(C(=O)NCCN4CCOCC4)cc2C)C(=O)N3)c1 [Formula 17]        > 20 µM
3  Cc1[nH]c(/C=C2\C(=O)Nc3ncnc(Nc4ccc(F)c(Cl)c4)c32)c(C)c1C(=O)N1CCN(C)CC1 [Formula 41]        > 20 µM
4  CC(C)c1cc(CCC(=O)O)c(/C=C2\C(=O)Nc3ncnc(Nc4ccc(F)c(Cl)c4)c32)[nH]1 [Formula 27]        > 20 µM
5  Cc1[nH]c(C=C2C(=O)Nc3ncnc(Nc4ccc(F)c(Cl)c4)c32)c(C)c1CCCN1CCOCC1 [Formula 7, HYDROCHLORIDE]          86 µM
6  Cc1[nH]c(/C=C2\C(=O)Nc3ncnc(Nc4ccc(F)c(Cl)c4)c32)c(C)c1C(=O)N1CCOCC1 [Formula 43]        > 20 µM
7  Cc1cc(C(=O)N2CCN(C)CC2)[nH]c1/C=C1\C(=O)N(C)c2ncnc(Nc3ccc(F)c(Cl)c3)c21 [Formula 36]        > 20 µM
8  O=C1Nc2ncnc(Nc3ccc(F)c(Cl)c3)c2/C1=C/c1ccc(C(=O)N2CCOCC2)[nH]1 [Formula 33]        > 20 µM

###

# testedTarget: HER-2 (Homo sapiens)
# Construct: P00533 (Epidermal growth factor receptor)
# Sequence (P04626 720-987 limits assumed): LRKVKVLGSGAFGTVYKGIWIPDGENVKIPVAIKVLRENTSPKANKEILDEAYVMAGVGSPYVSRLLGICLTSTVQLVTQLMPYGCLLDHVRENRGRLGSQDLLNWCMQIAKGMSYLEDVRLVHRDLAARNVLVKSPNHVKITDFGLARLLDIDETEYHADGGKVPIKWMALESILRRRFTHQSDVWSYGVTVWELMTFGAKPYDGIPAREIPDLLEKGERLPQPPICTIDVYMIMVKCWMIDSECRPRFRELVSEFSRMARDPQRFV
# measurementProtocol: Assay for modulation of HER-2 activity in whole cells (ELISA)
# conditionContext: EGFR/HER-2chimera/#T3-C7 cell lines, EGF stimulated; read-out: HER-2 kinase IC50
Structures can show the parent of a compound that is named as a salt.
Listed next: entries and their corresponding log10(IC50).
propertyName: log10(IC50) (log10 of the value in nM)

In [3]: df
Out[3]:
                                   compound  measuredvalue
0  CCN(CC)CCNC(=O)c1c(C)[nH]c(/C=C2\C(=O)Nc3ncnc(Nc4ccc(F)c(Cl)c4)c32)c1C           2.20
1  Cc1cc(CCC(=O)N2CCN(C)CC2)[nH]c1/C=C1\C(=O)Nc2ncnc(Nc3ccc(F)c(Cl)c3)c21           4.08
2  Cc1cc(/C=C2\C(=O)Nc3ncnc(Nc4ccc(F)c(Cl)c4)c32)[nH]c1C(=O)N1CCN(C)CC1           2.77
3  O=C1Nc2ncnc(Nc3ccc4c(ccn4Cc4ccccc4)c3)c2C1=Cc1ccc(C(=O)NCCN2CCOCC2)[nH]1 [Formula 12, HYDROCHLORIDE]           2.45
4  Cc1cc(C(=O)NCCN2CCOCC2)[nH]c1/C=C1\C(=O)N(C)c2ncnc(Nc3ccc(F)c(Cl)c3)c21           4.27
5  Cc1[nH]c(/C=C2\C(=O)Nc3ncnc(Nc4ccc(F)c(Cl)c4)c32)c(C)c1CC(=O)O           2.93

###

# testedTarget: EGFR (Homo sapiens, UniProt P00533)
# Construct: A431 […] cell lysate is stored at −80° C; host or cells: A431 cell lysate
# Sequence (P00533 25-1210): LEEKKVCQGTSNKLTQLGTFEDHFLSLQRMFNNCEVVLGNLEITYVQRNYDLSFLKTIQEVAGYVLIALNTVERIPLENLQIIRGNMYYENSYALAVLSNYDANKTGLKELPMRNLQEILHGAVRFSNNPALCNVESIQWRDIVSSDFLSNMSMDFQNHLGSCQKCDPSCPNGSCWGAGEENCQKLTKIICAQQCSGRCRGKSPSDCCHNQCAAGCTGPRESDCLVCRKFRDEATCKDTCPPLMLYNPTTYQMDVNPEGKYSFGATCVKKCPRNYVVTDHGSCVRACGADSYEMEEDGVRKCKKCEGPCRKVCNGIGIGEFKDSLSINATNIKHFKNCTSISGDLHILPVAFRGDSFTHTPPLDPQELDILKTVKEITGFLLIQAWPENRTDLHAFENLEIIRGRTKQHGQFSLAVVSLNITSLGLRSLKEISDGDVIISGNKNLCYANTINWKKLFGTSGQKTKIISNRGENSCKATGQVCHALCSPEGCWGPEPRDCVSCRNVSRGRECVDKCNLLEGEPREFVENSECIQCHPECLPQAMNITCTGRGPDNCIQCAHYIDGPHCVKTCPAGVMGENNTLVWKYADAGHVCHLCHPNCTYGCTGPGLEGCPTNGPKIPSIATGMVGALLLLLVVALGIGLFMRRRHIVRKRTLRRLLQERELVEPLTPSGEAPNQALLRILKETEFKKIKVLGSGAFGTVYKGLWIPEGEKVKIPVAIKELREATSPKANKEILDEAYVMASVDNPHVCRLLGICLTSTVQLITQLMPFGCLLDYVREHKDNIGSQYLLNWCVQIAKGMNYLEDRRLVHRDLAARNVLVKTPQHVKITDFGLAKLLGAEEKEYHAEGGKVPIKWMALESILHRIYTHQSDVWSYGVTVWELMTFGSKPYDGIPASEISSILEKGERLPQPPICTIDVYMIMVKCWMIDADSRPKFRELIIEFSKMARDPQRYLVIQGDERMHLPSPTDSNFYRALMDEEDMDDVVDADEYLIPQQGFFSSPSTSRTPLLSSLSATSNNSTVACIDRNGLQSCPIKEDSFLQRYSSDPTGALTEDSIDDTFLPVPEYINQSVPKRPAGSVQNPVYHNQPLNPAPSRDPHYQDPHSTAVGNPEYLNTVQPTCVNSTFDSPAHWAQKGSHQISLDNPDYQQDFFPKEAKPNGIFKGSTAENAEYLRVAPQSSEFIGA
# measurementProtocol: Assay for modulation of EGFR activity (ELISA)
# Type: biochemical
# conditionContext: read-out: bio EGFR IC50
pIC50: −log10 of the molar value. Where a name gives a salt, the structure may show the parent alone.
propertyName: pIC50

>>> print(df.to_string())
                                   molecule                         testedtarget  measuredvalue
0  O=C1Nc2ncnc(Nc3ccc4c(ccn4Cc4ccccc4)c3)c2C1=Cc1ccc(C(=O)NCCN2CCOCC2)[nH]1 [Formula 12, HYDROCHLORIDE]  EGFR (Homo sapiens, UniProt P00533)           8.40
1  Cc1[nH]c(/C=C2\C(=O)N(C)c3ncnc(Nc4ccc(F)c(Cl)c4)c32)c(C)c1CCC(=O)O  EGFR (Homo sapiens, UniProt P00533)           5.38
2  Cc1cc(C=C2C(=O)Nc3ncnc(Nc4ccc(F)c(Cl)c4)c32)[nH]c1C(=O)N1CCOCC1  EGFR (Homo sapiens, UniProt P00533)           6.62
3  Cc1[nH]c(/C=C2\C(=O)Nc3ncnc(Nc4ccc(F)c(Cl)c4)c32)c(C)c1C(=O)N1CCOCC1  EGFR (Homo sapiens, UniProt P00533)           6.07

###

# testedTarget: EGFR (Homo sapiens, UniProt P00533)
# Construct: A431 […] cell lysate is stored at −80° C; host or cells: A431 cell lysate
# measurementProtocol: Assay for modulation of EGFR activity (ELISA)
# Type: biochemical
# conditionContext: read-out: bio EGFR IC50
pIC50: −log10 of the molar value.
Listed compounds paired with reported pIC50
propertyName: pIC50

                                    compound  relationqualifier  measuredvalue
 0  Cc1cc(/C=C2\C(=O)Nc3ncnc(Nc4ccc(F)c(Cl)c4)c32)[nH]c1C(=O)N1CCN(C)CC1 [Formula 35]                  =           6.40
 1  Cc1cc(C(=O)NCCN2CCOCC2)[nH]c1C=C1C(=O)Nc2ncnc(Nc3ccc4c(ccn4Cc4ccccc4)c3)c21.Cl [Formula 6, HYDROCHLORIDE]                  =           9.00
 2  Cc1nc[nH]c1C=C1C(=O)Nc2ncnc(N3CCN(C)CC3)c21 [Formula 11]                  <           4.70
 3  Cc1[nH]c(/C=C2\C(=O)Nc3ncnc(Nc4ccc(F)c(Cl)c4)c32)c(C)c1CCC(=O)N1CCCC1 [Formula 24]                  =           6.05
 4  Cc1cc(C(=O)N2CCOCC2)[nH]c1/C=C1\C(=O)Nc2ncnc(NC(C)c3ccccc3)c21 (stereo not drawn) [Formula 46]                  =           8.92
 5  Cc1cc(CCC(=O)O)[nH]c1/C=C1\C(=O)N(C)c2ncnc(Nc3ccc(F)c(Cl)c3)c21 [Formula 42]                  =           4.98
 6  O=C1Nc2ncnc(N3CCOCC3)c2C1=Cc1ccc(C(=O)NCCN2CCOCC2)[nH]1 [Formula 13]                  =           4.72
 7  Cc1[nH]c(C=C2C(=O)Nc3ncnc(Nc4ccc(F)c(Cl)c4)c32)c(C)c1CCC(=O)O [Formula 19]                  =           6.77
 8  O=C1Nc2ncnc(N3CCCCC3)c2C1=Cc1ccc(C(=O)NCCN2CCOCC2)[nH]1 [Formula 5]                  <           4.70
 9  Cc1cc(C(=O)NCCN2CCOCC2)[nH]c1C=C1C(=O)Nc2ncnc(N3CCN(C)CC3)c21 [Formula 10]                  <           4.70
10  O=C1Nc2ncnc(Nc3ccc(F)c(Cl)c3)c2C1=Cc1ccc(C(=O)NCCN2CCOCC2)[nH]1 [Formula 15]                  =           7.70
11  Cc1cc(C(=O)O)[nH]c1/C=C1\C(=O)Nc2ncnc(Nc3ccc(F)c(Cl)c3)c21 [Formula 47]                  =           7.44
12  Cc1cc(C(=O)NCCN2CCOCC2)[nH]c1/C=C1\C(=O)N(C)c2ncnc(Nc3ccc(F)c(Cl)c3)c21 [Formula 32]                  =           5.15
13  C#Cc1cccc(Nc2ncnc3c2C(=Cc2[nH]c(C)c(CCCN4CCOCC4)c2C)C(=O)N3)c1 [Formula 18]                  =           6.74
14  Cc1[nH]c(/C=C2\C(=O)Nc3ncnc(Nc4ccc(F)c(Cl)c4)c32)c(C)c1CCC(=O)N1CCOCC1 [Formula 30]                  =           6.11

###

# testedTarget: HER-2 (Homo sapiens)
# Construct: P00533 (Epidermal growth factor receptor)
# measurementProtocol: Assay for modulation of HER-2 activity in whole cells (ELISA)
# conditionContext: EGFR/HER-2chimera/#T3-C7 cell lines, EGF stimulated; read-out: HER-2 kinase IC50
Listed below: IC50 values for each entry.
propertyName: IC50 (nM)

>>> df
                               recordsmiles  unitlabel  measuredvalue
0  O=C1Nc2ncnc(Nc3ccc(F)c(Cl)c3)c2C1=Cc1ccc(C(=O)NCCN2CCOCC2)[nH]1         nM            130
1  Cc1nc[nH]c1C=C1C(=O)Nc2ncnc(Nc3ccc(F)c(Cl)c3)c21         nM            100
2  C#Cc1cccc(Nc2ncnc3c2C(=Cc2[nH]c(C(=O)NCCN4CCOCC4)cc2C)C(=O)N3)c1         nM            100
3  Cc1c(C(=O)N2CCOCC2)c[nH]c1/C=C1\C(=O)Nc2ncnc(Nc3ccc(F)c(Cl)c3)c21         nM            370
